molecules and their reported TGI
system: HS 578T breast; experiment: NCI tumour cell line growth inhibition, 48 h

Consider the worked cases shown below.
c1ccc(Nn2c(CCCCCCCCc3nnc(COc4ccccc4)n3Nc3ccccc3)nnc2COc2ccccc2)cc1    > 300 µM
COc1ccc(CCNC(=O)CCCCCO)cc1OC    > 100 µM
Fc1cccc(CSc2ncnc3c2ncn3C2CCCS2)c1 (stereo not given)    > 100 µM
CCOC(=O)c1cn(CC)c2cc3c(cc2c1=O)CCS3(=O)=O    > 100 µM

For the next question, use this molecule.
### Prompt // Input: COc1nc2ccc(CNc3ccc(C(=O)O)cc3)cc2nc1OC . Output its TGI only.
### Response > 10 µM

----------
system: SW-620 colon; assay: NCI tumour cell line growth inhibition, 48 h
quantity_kind: TGI

### Prompt // Input: Cc1cc2c(c(C(=O)NCCC(=O)N[C@@H](C)C(=O)OCc3ccccc3)c1)Oc1c(cc(C)cc1C(=O)NCCC(=O)N[C@@H](C)C(=O)OCc1ccccc1)S2 . Output its TGI only.
### Response > 100 µM

### Prompt // Input: COc1cc([C@H]2c3cc4c(cc3[C@H](NCc3ccc([N+](=O)[O-])cc3)C3COC(=O)[C@H]32)OCO4)cc(OC)c1O (stereo not given in full) . Output its TGI only.
### Response > 38.3 µM

### Prompt // Input: CN(C(=O)C12C3(C(=O)C(C)(C)C)C4C5(C#N)C3C1(C(=O)C(C)(C)C)C5C42C(=O)C(C)(C)C)C(C)(C)C (stereo not given) . Output its TGI only.
### Response > 50 µM

### Prompt // Input: CN1CCN(/C(N)=C(\C#N)C(=O)Nc2ccccc2)CC1 . Output its TGI only.
### Response > 100 µM

### Prompt // Input: Cc1cc(Oc2cnc(=O)[nH]c2)cs1 . Output its TGI only.
### Response > 100 µM

----------
test system: NCI-H23 lung; assay: NCI tumour cell line growth inhibition, 48 h
quantity_kind: TGI

Consider the worked cases shown below.
COC(=O)c1c(O)ccc2c1c1c(n2Cc2ccccc2OC)C(=O)c2ccccc2C1    > 100 µM
C=CCCC(On1c(-c2ccc(Cl)cc2)csc1=S)c1ccccc1 (stereo unspecified)    > 100 µM

### Prompt // Input: O=C1c2ccccc2-c2nnc(-c3ccc(Cl)cc3)cc21 . Output its TGI only.
### Response > 10 µM

### Prompt // Input: COP(=O)(OC)c1ccc(NCc2cc(O)ccc2O)cc1 . Output its TGI only.
### Response > 75.8 µM

### Prompt // Input: C=CC[C@@H]1C=C[C@@H](C(=O)OC)n2c(=O)n(-c3ccccc3)c(=O)n21 . Output its TGI only.
### Response > 100 µM

### Prompt // Input: COC(=O)[C@@]1(O)CC(C)C=C1C=O (stereo partly specified) . Output its TGI only.
### Response > 100 µM

----------
compounds and their reported TGI
test system: A549 NSCLC; assay: NCI tumour cell line growth inhibition, 48 h

Consider the worked cases shown below.
CC(C)[NH-].CC(C)[NH-].O.O.[Cl][Pt+2][Cl]    213 µM
CC(C)(C)OC(=O)N1Cc2cc(O)ccc2C[C@H]1C(=O)O    > 100 µM
COc1ccc(N2C(N)=C(C#N)C(C#N)(C#N)C2c2cccc([N+](=O)[O-])c2)cc1 (stereo not given)    34.2 µM
CCOC(=O)C1C[C@H]2CO[C@H](c3ccccc3)N2C1=O (stereo not given in full)    > 100 µM
COc1cc2cc3c4c(cc(OC)c(OC)c4c2cc1OC)CCN3C(=O)N(C)C    > 100 µM

### Prompt State, for A549 NSCLC, measured TGI of the compound listed here: O=C1OC(c2ccc(Cl)cc2)(c2ccc(Cl)cc2)c2c1ccc1ccccc21
### Response > 100 µM

### Prompt State, for A549 NSCLC, measured TGI of the compound listed here: COc1ccc(/C=N/n2cnc3c(c2=O)S/C(=C2/SC(=S)N(c4ccc(C)cc4)C2=O)N3c2ccccc2)cc1
### Response > 100 µM

### Prompt State, for A549 NSCLC, measured TGI of the compound listed here: N#CCOc1cccc(C2(N3CC=CCC3)CCCCC2)c1
### Response > 100 µM

### Prompt State, for A549 NSCLC, measured TGI of the compound listed here: COc1cc(/C=c2/c3ccccc3n3c2cc(-c2ccccc2)[n+]3C)cc(OC)c1OC
### Response > 100 µM

### Prompt State, for A549 NSCLC, measured TGI of the compound listed here: COc1cc(C=O)c(-c2cc3c(cc2C2(C)OCCS2)OCO3)c(OC)c1OC (stereo not given)
### Response > 97 µM

----------
test system: DMS 114 small cell lung; assay: NCI tumour cell line growth inhibition, 48 h
quantity_kind: TGI (µM)
The response must be a number in µM with no trailing unit.

CC1=C(C(=O)Nc2ccc([N+](=O)[O-])cc2)C(c2ccccc2O)C(C(=O)Nc2ccc([N+](=O)[O-])cc2)=C(C)N1    44.8

For the next question, use this compound.
### Prompt // Input: COC(=O)[C@@]1(O)CC(C)C=C1C=O (stereo partly drawn) . Output its TGI only.
### Response 89.7

----------
tested on: UO-31 renal; assay: NCI tumour cell line growth inhibition, 48 h
compounds and their reported log10 TGI
Would you kindly interpret these values as log10 of TGI expressed in µM?

Consider the worked cases shown below.
Cc1oncc1NC1=CC(=O)C(=O)c2ccccc21    1.45
O=C(/C=C/c1cccc([N+](=O)[O-])c1)c1ccc(O)c(CN2CCN(c3cc4c(cc3F)c(=O)c(C(=O)O)cn4C3CC3)CC2)c1    0.43
CSc1n(Cc2ccc3ccccc3c2)c(C)c[n+]1Cc1ccc2ccccc2c1    0.58

### Prompt // Input: O=C(O)C(C(=O)C(=O)C(C(=O)O)c1ccc(Cl)cc1)c1ccc(Cl)cc1 (configuration not stated) . Output its log10 TGI only.
### Response 1.19

### Prompt // Input: CCOc1ccccc1N1C(=O)C(=O)C(c2nc3ccccc3o2)/C(=N\N)C1=O (configuration not stated) . Output its log10 TGI only.
### Response 1.96

----------
system: UACC-257 melanoma; test: NCI tumour cell line growth inhibition, 48 h
compounds and their reported TGI

c1cncc(-c2nc3ccccc3s2)c1    > 100 µM
O=C(CCc1ccc(O)c(O)c1)NCCc1ccc(O)c(O)c1    > 100 µM
Cc1cccc(Cl)c1NC(=O)c1cnc(Nc2cc(N3CCOCC3)cc(N3CCOCC3)c2)s1    > 10 µM
Cc1nc2c(Cl)cc(Cl)cc2c(Cl)c1CCCl    > 100 µM
CC(=O)C1COC(O)C1C (stereo not drawn)    > 100 µM
COc1cc(C2c3cc4c(cc3OC3(OC)COC(=O)C23)OCO4)cc(OC)c1OC (stereo not drawn)    > 100 µM
O=C(NCCN1CCC(O)CC1)c1cc2c(o1)C(=O)c1ccccc1C2=O    0.391 µM

For the next question, use this compound.
### Prompt // Input: COC(=O)c1c(O)ccc2c1c1c(n2Cc2ccccn2)C(=O)c2ccccc2C1=O . Output its TGI only.
### Response > 100 µM

----------
tested on: SN12C renal; test: NCI tumour cell line growth inhibition, 48 h; in the data active = GI50 below about 0.43 µM; inactive = the rest
Choose one outcome from this list and give only that: TRUE for active, FALSE for inactive

COc1ccc2c(c1)c1nc3cc(C)c(C)cc3nc1n2CCN(C)C    FALSE
O=c1oc(-c2ccccc2)cc2cccc(O)c12    FALSE
OC(C1CO1)C(O)C1CO1 (configuration not stated)    FALSE
C=C1C(=O)O[C@@H]2OC3(C)CCC4C(C)CCC1C42OO3 (some centres not stated)    FALSE
CCCOC(=O)N[C@H]1CCc2cc(OC)c(OC)c(OC)c2-c2ccc(SC)c(=O)cc21    TRUE

### Prompt Could you please tell me the result logged for O=C(NCCN1CCC(O)CC1)c1cc2c(o1)C(=O)c1ccccc1C2=O in this assay?
### Response TRUE

### Prompt Could you please tell me the result logged for Cn1cc(-c2nc(-c3c[nH]c4ccncc34)cs2)c2cc(F)ccc21 in this assay?
### Response FALSE

----------
molecules and their reported TGI
test system: HL-60(TB) leukemia; assay: NCI tumour cell line growth inhibition, 48 h

### Prompt // Input: COc1cc2cc3c4c(cc(OC)c(OC)c4c2cc1OC)CCN3C(=O)N(C)C . Output its TGI only.
### Response > 100 µM

### Prompt // Input: CCCCC1(N=[N+]=[N-])C(=O)C2C=CC=C3c4ccccc4N(C1=O)C32 (stereo unspecified) . Output its TGI only.
### Response > 100 µM

### Prompt // Input: CC(C)(c1ccc(Oc2ccc(C#N)c(C#N)c2)cc1)c1ccc(Oc2ccc(C#N)c(C#N)c2)cc1 . Output its TGI only.
### Response > 100 µM

### Prompt // Input: Cc1nc2c(Cl)cc(Cl)cc2c(Cl)c1CCCl . Output its TGI only.
### Response > 100 µM

### Prompt // Input: NNC(=O)CCC(NS(=O)(=O)c1ccc(Cl)cc1)C(=O)NN (stereo unspecified) . Output its TGI only.
### Response > 100 µM

### Prompt // Input: CC(C)N1CCC2(CC1)NNc1ncccc1-n1cccc12 . Output its TGI only.
### Response > 100 µM
